Target: human Tyk2 (Homo sapiens)
Construct: human Tyk2 enzyme (residues 880–1185); His tag (cleavable); TEV site per construct name His-Tev-huTyk2 (880–1185)-Flag) (N); Flag (C)
Sequence (P29597 880-1185): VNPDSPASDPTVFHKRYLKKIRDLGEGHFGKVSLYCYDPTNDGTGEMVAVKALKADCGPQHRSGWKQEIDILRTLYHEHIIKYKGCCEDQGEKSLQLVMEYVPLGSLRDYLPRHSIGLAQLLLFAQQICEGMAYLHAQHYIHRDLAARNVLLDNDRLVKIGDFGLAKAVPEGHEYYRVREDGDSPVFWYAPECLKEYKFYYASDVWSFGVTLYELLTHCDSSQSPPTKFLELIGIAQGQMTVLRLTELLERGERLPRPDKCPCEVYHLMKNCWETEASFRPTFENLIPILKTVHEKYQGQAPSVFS
Test: trFRET kinase activity assay, Tyk2
Settings: human Tyk2 (880–1185), 1 μM ATP, mean and standard error; read-out: IC50, inhibition of Tyk2 enzyme activity
parameter: IC50

Req: Determine its reported IC50: O=C(Nc1n[nH]c2ccc(-c3ccc(NS(=O)(=O)c4cccc(Cl)c4)cc3)cc12)c1ccco1 [Compound 2]
Resp: < 3 nM

###

Target: Jak1 (Homo sapiens)
Construct: Jak1 (residues 845–1142) was expressed in Sf9 cells; GST
Sequence (P23458 845-1142, species assumed): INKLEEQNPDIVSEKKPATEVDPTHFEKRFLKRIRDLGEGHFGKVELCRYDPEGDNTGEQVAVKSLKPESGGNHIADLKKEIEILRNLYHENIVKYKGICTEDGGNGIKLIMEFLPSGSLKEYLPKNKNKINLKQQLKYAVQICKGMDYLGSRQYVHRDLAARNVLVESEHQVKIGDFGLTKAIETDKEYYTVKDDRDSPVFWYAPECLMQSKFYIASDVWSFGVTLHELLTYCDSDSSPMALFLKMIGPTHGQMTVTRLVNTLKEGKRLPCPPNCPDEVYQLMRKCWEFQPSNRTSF
Test: trFRET kinase activity assay, Jak1
Conditions: Jak1 (845–1142) GST fusion, 1 μM ATP, mean and standard error; read-out: IC50, inhibition of Jak1 enzyme activity
Please respond with reported pIC50 for every item in the list.
Just so you know, pIC50 here is -log10 of the concentration in molar units; reply with that number alone.

Req: Return value of pIC50 for input O=C(Nc1n[nH]c2ccc(-c3ccc(NS(=O)(=O)c4cccc(Cl)c4)cc3)cc12)c1ccco1 [Compound 2] , no commentary.
Resp: 8.00

Req: Give the reported value of pIC50 for this record: Nc1n[nH]c2ccc(-c3ccc(NS(=O)(=O)c4cccc(Cl)c4)cc3)cc12 [Compound 1]
Resp: 8.30

###

Biological target: Jak2 (Homo sapiens, UniProt O60674)
Sequence (O60674 808-1132 limits assumed): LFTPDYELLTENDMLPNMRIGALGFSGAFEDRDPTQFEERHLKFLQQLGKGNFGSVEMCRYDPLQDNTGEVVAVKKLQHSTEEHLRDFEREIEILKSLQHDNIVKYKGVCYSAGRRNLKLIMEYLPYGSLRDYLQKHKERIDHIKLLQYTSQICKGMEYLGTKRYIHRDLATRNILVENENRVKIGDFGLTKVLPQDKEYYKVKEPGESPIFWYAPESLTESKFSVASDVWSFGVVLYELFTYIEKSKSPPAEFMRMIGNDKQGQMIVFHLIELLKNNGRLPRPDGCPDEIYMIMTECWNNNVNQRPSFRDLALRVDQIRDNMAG
parameter: pIC50
In plain terms, pIC50 is the concentration in mol/L turned into minus its base-10 logarithm.

Req: Look up pIC50 of O=C(Nc1n[nH]c2ccc(-c3ccc(NS(=O)(=O)c4cccc(Cl)c4)cc3)cc12)c1ccco1 [Compound 2] and report it.
Resp: 8.40

###

Molecular target: Jak3 (Homo sapiens)
Construct: purchased Upstate/Millipore #14–629
Sequence (P52333 1-1124): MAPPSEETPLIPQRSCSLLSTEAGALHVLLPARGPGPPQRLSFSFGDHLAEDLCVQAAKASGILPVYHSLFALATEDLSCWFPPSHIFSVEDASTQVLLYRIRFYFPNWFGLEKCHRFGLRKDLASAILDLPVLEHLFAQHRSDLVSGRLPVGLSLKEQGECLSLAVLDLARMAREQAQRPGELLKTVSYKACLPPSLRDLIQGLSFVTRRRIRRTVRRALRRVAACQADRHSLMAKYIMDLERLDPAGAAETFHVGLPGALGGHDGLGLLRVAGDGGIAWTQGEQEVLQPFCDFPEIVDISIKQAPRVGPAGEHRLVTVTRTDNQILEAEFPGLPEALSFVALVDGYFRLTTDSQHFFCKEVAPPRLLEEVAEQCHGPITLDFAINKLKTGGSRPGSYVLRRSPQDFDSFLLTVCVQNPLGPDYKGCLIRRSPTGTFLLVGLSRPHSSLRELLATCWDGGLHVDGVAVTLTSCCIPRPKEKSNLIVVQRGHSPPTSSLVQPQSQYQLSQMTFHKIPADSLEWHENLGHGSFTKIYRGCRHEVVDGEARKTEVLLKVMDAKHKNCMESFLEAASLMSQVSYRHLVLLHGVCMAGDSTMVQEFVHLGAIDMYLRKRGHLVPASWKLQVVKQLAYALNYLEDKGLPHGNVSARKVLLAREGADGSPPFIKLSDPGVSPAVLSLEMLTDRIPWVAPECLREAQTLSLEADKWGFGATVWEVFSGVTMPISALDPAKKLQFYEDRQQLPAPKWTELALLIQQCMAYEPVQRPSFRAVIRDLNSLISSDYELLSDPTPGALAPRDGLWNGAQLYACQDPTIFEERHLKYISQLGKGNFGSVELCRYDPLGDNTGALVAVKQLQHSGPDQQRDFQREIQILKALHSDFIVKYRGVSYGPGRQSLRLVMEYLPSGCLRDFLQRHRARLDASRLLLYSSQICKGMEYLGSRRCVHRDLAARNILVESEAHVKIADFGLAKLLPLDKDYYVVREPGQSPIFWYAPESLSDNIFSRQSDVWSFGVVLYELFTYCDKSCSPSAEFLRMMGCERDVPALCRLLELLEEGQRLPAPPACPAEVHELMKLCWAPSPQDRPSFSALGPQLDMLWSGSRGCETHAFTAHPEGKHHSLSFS
Experiment: trFRET kinase activity assay, Jak3
Assay type: biochemical
Conditions: 1 μM ATP, mean and standard error; read-out: IC50, inhibition of Jak3 enzyme activity
parameter: IC50 (nM)
The answer is to be given in nM; state only the numeric part.

Req: Tell me IC50 reported for Nc1n[nH]c2ccc(-c3ccc(NS(=O)(=O)c4cccc(Cl)c4)cc3)cc12 [Compound 1]
Resp: 42

Req: Please list IC50 recorded for the compound O=C(Nc1n[nH]c2ccc(-c3ccc(NS(=O)(=O)c4cccc(Cl)c4)cc3)cc12)c1ccco1 [Compound 2]
Resp: 41

Reference source for all entries: paper PMC3478977
